Reference for the values: PubChem BioAssay AID1851

experimental target: Cytochrome P450 2C9 (Homo sapiens)
experiment: Cytochrome panel assay with activity outcomes
test settings: recombinant CYP, pro-luciferin dealkylation, luminescence, p450-cyp2c9; series mostly up to 57.1 µM
Among all 16,000 compounds or so, about 4,000 (25%) were called active. Another 26% or so got no clear call; they are omitted. These entries were drawn from the full list.
quantity measured: AC50

Known results for compounds:
Q: Output reported AC50 of the compound `Cc1ccc(C)c(NC(=O)c2ncn[nH]2)c1` on Cytochrome P450 2C9 (Homo sapiens).
A: inactive

Q: Enter AC50 (test system Cytochrome P450 2C9 (Homo sapiens)) for `CCOC(=O)N1CCC(NC(=O)CS(=O)(=O)Cc2nc(-c3cccc(OC)c3)oc2C)CC1`
A: 25.1 µM (active)

Q: Provide measured AC50 on Cytochrome P450 2C9 (Homo sapiens) for `CCCSc1nc(C)cc(C)c1C(N)=O` please.
A: inactive

Q: Provide measured AC50 on Cytochrome P450 2C9 (Homo sapiens) for Cc1ccc(C)c(NC(=O)C2CC3c4ccccc4C2c2ccccc23)c1 (stereo unspecified) please.
A: 5.01 µM (active)

Q: Write down the reported AC50 (system: Cytochrome P450 2C9 (Homo sapiens)) of `CCOc1cc(NC(=O)c2ccccc2[N+](=O)[O-])c(OCC)cc1NC(=O)CC(C)C`
A: inactive

Q: Under Cytochrome P450 2C9 (Homo sapiens): report AC50 of CN(Cc1ccccc1)C(=O)CC(c1ccccc1)c1cc(Cl)ccc1O (stereo unspecified) .
A: 4.47 µM (active)

Q: Fetch value of AC50 on Cytochrome P450 2C9 (Homo sapiens) for CC(C)Oc1ccc(CNC(=O)CC(c2ccccc2)c2cc(Cl)ccc2O)cc1 (stereo unspecified) .
A: 2.24 µM (active)

Q: Give AC50 for Cc1ccc(C)c(NC(=O)C2CC(O)CN2C(=O)OC(C)(C)C)c1 (stereo unspecified) tested on Cytochrome P450 2C9 (Homo sapiens).
A: inactive

Q: Report AC50 under test system Cytochrome P450 2C9 (Homo sapiens) for `CN1C(=O)CC[C@@H]1c1cccnc1` .
A: inactive

Q: Recall the reported AC50 of `Cc1cc(C)c(C(N)=O)c(SCC(=O)c2ccc(Cl)cc2)n1` when tested on Cytochrome P450 2C9 (Homo sapiens).
A: 12.6 µM (active)

Turning now to a further compound:
Q: Provide AC50, tested on Cytochrome P450 2C9 (Homo sapiens), for `O=C(Nc1ccc(Br)cc1)c1ccc(CSC2=NCCS2)cc1` .
A: 7.08 µM (active)
